Reference for the values: paper PMC12067128

TARGET OF ASSAY: DDR1 (Homo sapiens)
Construct: ProLink™ (PK) tagged full-length DDR1b
Sequence (Q08345 19-913): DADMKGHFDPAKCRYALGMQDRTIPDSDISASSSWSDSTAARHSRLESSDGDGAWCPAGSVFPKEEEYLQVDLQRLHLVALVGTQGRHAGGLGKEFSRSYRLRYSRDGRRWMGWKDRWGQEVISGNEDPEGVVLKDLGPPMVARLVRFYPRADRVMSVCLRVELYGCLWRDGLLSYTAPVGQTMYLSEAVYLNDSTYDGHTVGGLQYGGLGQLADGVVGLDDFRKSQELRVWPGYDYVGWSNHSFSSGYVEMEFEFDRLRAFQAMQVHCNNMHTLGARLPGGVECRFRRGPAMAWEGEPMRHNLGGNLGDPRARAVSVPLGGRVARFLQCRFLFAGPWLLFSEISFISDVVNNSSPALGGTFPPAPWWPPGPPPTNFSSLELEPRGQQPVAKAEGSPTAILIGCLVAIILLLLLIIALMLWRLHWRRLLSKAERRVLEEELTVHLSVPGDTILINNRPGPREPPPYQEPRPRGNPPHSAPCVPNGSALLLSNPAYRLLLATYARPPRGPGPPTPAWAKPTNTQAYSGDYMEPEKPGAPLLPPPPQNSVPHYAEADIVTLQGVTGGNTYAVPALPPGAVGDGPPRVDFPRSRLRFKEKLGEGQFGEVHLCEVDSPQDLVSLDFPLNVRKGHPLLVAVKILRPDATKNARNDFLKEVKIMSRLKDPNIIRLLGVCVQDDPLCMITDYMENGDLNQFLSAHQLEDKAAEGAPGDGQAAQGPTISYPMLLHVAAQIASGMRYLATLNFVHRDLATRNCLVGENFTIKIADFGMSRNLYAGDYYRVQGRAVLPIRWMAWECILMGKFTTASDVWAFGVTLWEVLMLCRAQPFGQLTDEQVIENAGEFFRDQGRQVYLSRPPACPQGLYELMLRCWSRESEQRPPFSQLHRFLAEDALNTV
ASSAY TEXT: PathHunter U2OS DDR1 Functional Assay (DDR1 cellular assay)
MEASUREMENT PARAMETERS: U2OS PathHunter cells, collagen II stimulation; read-out: Cell DDR1 IC50
Documented pIC50 across a set of compounds
pIC50 here is simply -log10 of the concentration when that concentration is written in mol/L.

Solved entries (count: 3):
SMILES NOTATION | pIC50
Cn1cc2c3nc(ncc31)Nc1cnn(c1)CCCNCCOc1ccc-2cc1 | 6.90
c1cc2nc(n1)Nc1cnn(c1)CCCNCCOc1ccc(cc1)N2 | 5.90
Cn1cc2c3nc(ncc31)Nc1cnn(c1)CCCNC(=O)COc1ccc-2cc1 | 5.70

# next compound below
Item: `Cc1ccc(C(=O)Nc2cccc(C(F)(F)F)c2)cc1-c1cc2nc(Nc3cnn(C)c3)ncc2[nH]1` Test system: DDR1 (Homo sapiens) Read-out: pIC50 Value: ?
8.52
